assay: Glutathione peroxidase (GPx)-like activity assay, coupled NADPH oxidation at 340 nm; type: biochemical; settings: peroxide H2O2 1.6 mM; compound 50 μm; GSH 2.0 mM; pH 7.5; 25° C.
Initial rate v0, H2O2 vs 100 μm min^−1: less than gives y; not less than gives n.

# count of solved cases: 3
O=C1c2ccccc2[Se](=O)N1c1nc2ccc(OC(F)(F)F)cc2s1 (centres unmarked); y
O=C1CCC(n2[se]c3cc(F)ccc3c2=O)C(=O)N1 (centres unmarked); n
O=C1CCC(n2[se]c3ccccc3c2=O)C(=O)N1 (centres unmarked); n

Now turn to the next compound.
Is 100 μm min^−1 strictly greater than the compound's reported Initial rate v0, H2O2? compound: O=C1CC(n2[se]c3cc(F)ccc3c2=O)C(=O)N1 (centres unmarked)
n
